- tested.system: FGFR1 (Homo sapiens, UniProt P11362)
- Construct: cytoplasmic domain [398-822 (terminal) amino acids]; purchased Carna 08-133
- Sequence (P11362 398-822): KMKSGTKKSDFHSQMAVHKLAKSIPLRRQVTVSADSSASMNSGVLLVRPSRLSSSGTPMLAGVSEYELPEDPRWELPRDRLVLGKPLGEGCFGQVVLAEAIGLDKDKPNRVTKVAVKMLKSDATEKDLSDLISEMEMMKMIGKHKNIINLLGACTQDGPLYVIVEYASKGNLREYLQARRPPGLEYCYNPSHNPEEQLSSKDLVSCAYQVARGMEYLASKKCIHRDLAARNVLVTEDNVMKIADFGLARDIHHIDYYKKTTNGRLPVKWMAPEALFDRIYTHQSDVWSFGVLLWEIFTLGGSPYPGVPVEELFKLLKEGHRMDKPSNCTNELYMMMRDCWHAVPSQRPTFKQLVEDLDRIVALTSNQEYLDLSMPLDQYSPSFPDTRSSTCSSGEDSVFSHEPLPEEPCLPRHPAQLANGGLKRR
- protocol.notes: FGFR1 kinase activity inhibition assay (LanthaScreen TR-FRET)
- Type: biochemical
Task for the reader: assign each of the following molecules its reported IC50.

Value of measured IC50 for the entry COc1cc(O[C@H](C)c2c(Cl)cncc2Cl)cc2c(-c3cnn(CCN4CCOCC4)c3)n[nH]c12 : > 100 nM

Value of measured IC50 for the entry C[C@@H](Oc1cc(F)c2[nH]nc(-c3cnn(CCC4CCOCC4)c3)c2c1)c1c(Cl)cncc1Cl : 1 to 10 nM

Value of measured IC50 for the entry CC(=O)N1CCC(n2cc(-c3n[nH]c4ccc(O[C@H](C)c5c(Cl)cncc5Cl)nc34)cn2)CC1 : 1 to 10 nM

Value of measured IC50 for the entry [2H]C([2H])([2H])c1cc2nccnc2c(C(C)Oc2ccc3[nH]nc(-c4cnn(C)c4)c3c2)n1 (stereo not shown) : 1 to 10 nM

---

Task for the reader: assign each of the following compounds its reported IC50.
- tested.system: FGFR3 (Homo sapiens, UniProt P22607)
- Construct: FGFR3's cytoplasmic domain [436-806 (terminal) amino acids]; purchased Carna 08-135
- Sequence (P22607 436-806): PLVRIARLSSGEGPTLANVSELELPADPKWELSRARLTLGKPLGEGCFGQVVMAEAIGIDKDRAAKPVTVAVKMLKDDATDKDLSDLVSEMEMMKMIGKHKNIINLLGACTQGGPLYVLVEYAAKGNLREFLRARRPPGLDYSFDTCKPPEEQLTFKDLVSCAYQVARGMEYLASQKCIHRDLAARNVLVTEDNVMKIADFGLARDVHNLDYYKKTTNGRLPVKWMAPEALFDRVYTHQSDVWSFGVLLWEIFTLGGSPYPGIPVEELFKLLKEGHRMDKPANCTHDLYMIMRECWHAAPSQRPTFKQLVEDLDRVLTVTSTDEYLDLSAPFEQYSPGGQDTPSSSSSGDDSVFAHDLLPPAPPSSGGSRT
- protocol.notes: FGFR3 kinase activity inhibition assay (LanthaScreen TR-FRET)
- Type: biochemical

Value of measured IC50 for the entry COc1cc(O[C@H](C)c2c(Cl)cncc2Cl)cc2c(-c3cnn(CCN4CCOCC4)c3)n[nH]c12 : > 100 nM

Value of measured IC50 for the entry [2H]C([2H])([2H])c1cc2nccnc2c(C(C)Oc2ccc3[nH]nc(-c4cnn(C)c4)c3c2)n1 (stereo not shown) : < 1 nM

Value of measured IC50 for the entry C[C@@H](Oc1cc(F)c2[nH]nc(-c3cnn(CCC4CCOCC4)c3)c2c1)c1c(Cl)cncc1Cl : 1 to 10 nM

Value of measured IC50 for the entry CC(C)N1CCC(n2cc(-c3n[nH]c4ccc(O[C@H](C)c5c(Cl)cncc5Cl)nc34)cn2)CC1 : 1 to 10 nM

Value of measured IC50 for the entry Cc1ccc2ncccc2c1C(C)Oc1ccc2[nH]nc(-c3cnn(C)c3)c2c1 (stereo not shown) : 1 to 10 nM

Value of measured IC50 for the entry C[C@@H](Oc1ccc2[nH]nc(-c3cnn(C4CCN(C(=O)N(C)C)CC4)c3)c2n1)c1c(Cl)cncc1Cl : 1 to 10 nM

Value of measured IC50 for the entry CC(Oc1ccc2[nH]nc(-c3cnn(C)c3)c2c1)c1c(CO)ccc2ncccc12 (stereo not shown) : 1 to 10 nM

---

- tested.system: FGFR3 (Homo sapiens, UniProt P22607)
- Construct: FGFR3's cytoplasmic domain [436-806 (terminal) amino acids]; purchased Carna 08-135
- protocol.notes: FGFR3 kinase activity inhibition assay (LanthaScreen TR-FRET)
- Format: biochemical
- stated.conditions: FGFR3 kinase, TR-FRET; read-out: IC50 (nM) FGFR3
Task for the reader: assign each of the following molecules its reported IC50.

// IC50 (FGFR3 (Homo sapiens, UniProt P22607)) for CC(Oc1ccc2[nH]nc(-c3cnn(C4CN(CC(N)=O)C4)c3)c2c1)c1cccc2nccnc12 (centres unmarked) = < 1 nM

// IC50 (FGFR3 (Homo sapiens, UniProt P22607)) for CC(Oc1ccc2[nH]nc(-c3cnn(C4CN(C(=O)C(C)(C)O)C4)c3)c2c1)c1cccc2nccnc12 (centres unmarked) = < 1 nM

// IC50 (FGFR3 (Homo sapiens, UniProt P22607)) for CC(Oc1ccc2[nH]nc(-c3cnn(C)c3)c2c1)c1cc(Cl)cc2nccnc12 (centres unmarked) = < 1 nM

// IC50 (FGFR3 (Homo sapiens, UniProt P22607)) for CC(Oc1ccc2[nH]nc(-c3cnn(C4CN(C(=O)CC#N)C4)c3)c2c1)c1cccc2nccnc12 (centres unmarked) = 1 to 10 nM

// IC50 (FGFR3 (Homo sapiens, UniProt P22607)) for C[C@@H](Oc1ccc2[nH]nc(-c3cnn(CCCN4CCOCC4)c3)c2n1)c1c(Cl)cncc1Cl = < 1 nM

// IC50 (FGFR3 (Homo sapiens, UniProt P22607)) for CNCCNC(=O)c1ccc2[nH]nc(-c3nc4c([nH]3)CN(C)C4)c2c1 = > 100 nM

// IC50 (FGFR3 (Homo sapiens, UniProt P22607)) for Cn1cc(-c2n[nH]c3ccc(C(=O)NCC4CNC4)cc23)cn1 = > 100 nM

// IC50 (FGFR3 (Homo sapiens, UniProt P22607)) for CC(Oc1ccc2[nH]nc(-c3cnn(C)c3)c2c1)c1cc(Br)cc2nccnc12 (centres unmarked) = 1 to 10 nM

Data provenance is patent EP4644383A1.
